These data points were gathered from patent US8877798B2.

Biological target: UniProtKB P23975
Assay: NET binding
Conditions: read-out: Binding NET Ki
Property Name: log10 Ki (log10 of the value in µM)
Units before log transform: µM; reported quantity: Ki; transform: log10.

Example entries and their recorded answers appear below.
Q. Given the compound Clc1ccc(C23CC2CN(C2CC2)C3)cc1Cl (stereo not drawn) , what is its reported log10 Ki?
A. 0.98

Q. Given the compound CCN1CC2C[C@@]2(c2ccc(Cl)c(Cl)c2)C1 (stereo partly drawn) , what is its reported log10 Ki?
A. -1.49

Q. Given the compound Fc1ccc(C23CNCC2C3)cc1Cl (stereo not drawn) , what is its reported log10 Ki?
A. 0.23

More entries:
Q. Given the compound CN1CC2CC2(c2ccc(F)cc2F)C1 (stereo not drawn) , what is its reported log10 Ki?
A. 0.82

Q. Given the compound CN1CC2CC2(c2ccc3ccccc3c2)C1 (stereo not drawn) , what is its reported log10 Ki?
A. -0.28

Q. Given the compound CCCCN1CC2CC2(c2ccc(Cl)c(Cl)c2)C1 (stereo not drawn) , what is its reported log10 Ki?
A. 0.34

Q. Given the compound CC(C)N1CC2C[C@@]2(c2ccc(Cl)c(Cl)c2)C1 (stereo partly drawn) , what is its reported log10 Ki?
A. -0.29

Q. Given the compound CCCN1CC2C[C@@]2(c2ccc(Cl)c(Cl)c2)C1 (stereo partly drawn) , what is its reported log10 Ki?
A. 0.60

Q. Given the compound CCCCN1CC2C[C@@]2(c2ccc(Cl)c(Cl)c2)C1 (stereo partly drawn) , what is its reported log10 Ki?
A. 0.28

* * *

Target: DAT (Homo sapiens (Human), UniProt Q01959)
Test: DAT binding
Conditions: read-out: Binding DAT Ki
pKi: −log10 of the molar value.
Label satisfied when pKi is at or above 7; anything below gets not satisfied.

Reference set, count: 2
Q. Please check the record CC(C)N1CC2CC2(c2ccc(Cl)c(Cl)c2)C1 (centres unmarked) and state if its pKi is at or above 7.
A. satisfied

Q. Please check the record CCCN1CC2C[C@@]2(c2ccc(Cl)c(Cl)c2)C1 (some centres unmarked) and state if its pKi is at or above 7.
A. not satisfied

Switching to the query record.
Q. Please check the record CCCN1CC2CC2(c2ccc(Cl)c(Cl)c2)C1 (centres unmarked) and state if its pKi is at or above 7.
A. not satisfied

* * *

Biological target: dopamine (DA) uptake, rat striatum synaptosomes (Rattus norvegicus (Rat))
Assay: Dopamine (DA) uptake inhibition in rat striatum synaptosomes
Type: biochemical
Details: [3H]DA, rat striatum synaptosomes, 15 min at 37° C.; read-out: Uptake IC50 (nM) DA
Property Name: IC50 (nM)
The answer is to be given in nM; state only the numeric part.

Q. Given the molecule CC(C)(C)N1CC2CC2(c2ccc(Cl)c(Cl)c2)C1 (stereo not shown) , what is its reported IC50?
A. 1500

* * *

Biological target: 5-HT uptake, rat brain synaptosomes (Rattus norvegicus (Rat), UniProt P31652)
Assay: 5-HT uptake inhibition in rat brain synaptosomes
Format: biochemical
Property Name: IC50 (nM)
The answer is to be given in nM; state only the numeric part.

Example entries and their recorded answers appear below.
Q. So what IC50 did CC(C)(C)N1CC2CC2(c2ccc(Cl)c(Cl)c2)C1 (stereo not drawn) get with 5-HT uptake, rat brain synaptosomes (Rattus norvegicus (Rat), UniProt P31652)?
A. 240

Q. So what IC50 did c1ccc2cc([C@@]34CNCC3C4)ccc2c1 (stereo partly drawn) get with 5-HT uptake, rat brain synaptosomes (Rattus norvegicus (Rat), UniProt P31652)?
A. 170

Pending molecule:
Q. So what IC50 did c1ccc2cc([C@]34CNCC3C4)ccc2c1 (stereo partly drawn) get with 5-HT uptake, rat brain synaptosomes (Rattus norvegicus (Rat), UniProt P31652)?
A. 65

* * *

Target: dopamine (DA) uptake, rat striatum synaptosomes (Rattus norvegicus (Rat), UniProt P23977)
Sequence (P23977 whole entry): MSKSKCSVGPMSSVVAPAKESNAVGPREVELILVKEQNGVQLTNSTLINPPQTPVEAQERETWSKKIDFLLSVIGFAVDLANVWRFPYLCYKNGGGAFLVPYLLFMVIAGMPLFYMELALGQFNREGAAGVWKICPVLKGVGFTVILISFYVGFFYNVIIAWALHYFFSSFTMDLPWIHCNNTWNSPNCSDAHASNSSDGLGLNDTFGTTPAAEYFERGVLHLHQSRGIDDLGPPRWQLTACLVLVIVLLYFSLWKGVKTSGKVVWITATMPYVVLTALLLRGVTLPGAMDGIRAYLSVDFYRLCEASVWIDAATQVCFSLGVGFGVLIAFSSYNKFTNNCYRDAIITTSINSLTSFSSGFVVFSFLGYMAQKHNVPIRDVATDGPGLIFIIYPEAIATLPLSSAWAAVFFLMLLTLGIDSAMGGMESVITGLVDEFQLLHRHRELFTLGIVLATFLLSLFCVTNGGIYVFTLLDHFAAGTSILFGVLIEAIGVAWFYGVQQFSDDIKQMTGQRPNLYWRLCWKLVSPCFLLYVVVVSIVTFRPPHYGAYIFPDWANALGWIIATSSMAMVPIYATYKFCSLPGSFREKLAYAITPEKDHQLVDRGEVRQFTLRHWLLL
Experiment: Dopamine (DA) uptake inhibition in rat striatum synaptosomes
Assay type: biochemical
Property Name: pIC50
Units for pIC50: none; it is -log10 of a concentration expressed in mol/L.

Q. Given the compound CN1CC2C[C@@]2(c2ccc3ccccc3c2)C1 (stereo partly shown) , what is its reported pIC50?
A. 7.09

Q. Given the compound CCCN1CC2C[C@@]2(c2ccc(Cl)c(Cl)c2)C1 (stereo partly shown) , what is its reported pIC50?
A. 5.74

Q. Given the compound CCCN1CC2CC2(c2ccc(Cl)c(Cl)c2)C1 (stereo not shown) , what is its reported pIC50?
A. 6.00

Q. Given the compound CN1CC2CC2(c2ccc(F)c(F)c2)C1 (stereo not shown) , what is its reported pIC50?
A. 5.74

Q. Given the compound CC(C)N1CC2C[C@]2(c2ccc(Cl)c(Cl)c2)C1 (stereo partly shown) , what is its reported pIC50?
A. 6.37

More entries:
Q. Given the compound CN1CC2C[C@@]2(c2ccc(Cl)c(F)c2)C1 (stereo partly shown) , what is its reported pIC50?
A. 6.36

Q. Given the compound CCN1CC2C[C@@]2(c2ccc(Cl)c(Cl)c2)C1 (stereo partly shown) , what is its reported pIC50?
A. 7.10

Q. Given the compound Cc1ccc(C23CC2CN(C)C3)cc1F (stereo not shown) , what is its reported pIC50?
A. 6.15

Q. Given the compound COc1ccc2cc(C34CC3CN(C)C4)ccc2c1 (stereo not shown) , what is its reported pIC50?
A. 7.04

Q. Given the compound CC(C)N1CC2C[C@@]2(c2ccc(Cl)c(Cl)c2)C1 (stereo partly shown) , what is its reported pIC50?
A. 6.48

Q. Given the compound Fc1ccc(C23CNCC2C3)cc1Cl (stereo not shown) , what is its reported pIC50?
A. 5.85

Q. Given the compound CN1CC2CC2(c2ccc3ccccc3c2)C1 (stereo not shown) , what is its reported pIC50?
A. 6.46

Q. Given the compound CN1CC2CC2(c2ccc(F)cc2F)C1 (stereo not shown) , what is its reported pIC50?
A. 5.13

Q. Given the compound CCCCN1CC2C[C@@]2(c2ccc(Cl)c(Cl)c2)C1 (stereo partly shown) , what is its reported pIC50?
A. 5.66

Q. Given the compound Fc1ccc([C@]23CNCC2C3)cc1Cl (stereo partly shown) , what is its reported pIC50?
A. 6.24

Q. Given the compound Clc1ccc(C23CC2CN(C2CC2)C3)cc1Cl (stereo not shown) , what is its reported pIC50?
A. 5.82

Q. Given the compound CN1CC2C[C@]2(c2ccc3ccccc3c2)C1 (stereo partly shown) , what is its reported pIC50?
A. 6.83

Q. Given the compound Fc1cc([C@]23CNCC2C3)ccc1Cl (stereo partly shown) , what is its reported pIC50?
A. 6.38

Q. Given the compound COc1ccc2cc(C34CNCC3C4)ccc2c1 (stereo not shown) , what is its reported pIC50?
A. 6.68

Q. Given the compound CCCN1CC2C[C@]2(c2ccc(Cl)c(Cl)c2)C1 (stereo partly shown) , what is its reported pIC50?
A. 6.11

* * *

We begin with a simple list: items and their reported IC50.
Molecular target: 5-HT uptake, rat brain synaptosomes (Rattus norvegicus (Rat))
Assay: 5-HT uptake inhibition in rat brain synaptosomes
Assay type: biochemical
Settings: [3H]5-HT, rat brain synaptosomes, 15 min at 37° C.; read-out: Uptake IC50 (nM) 5-HT
Protocol: The effects of exemplary compounds of the invention on the cellular uptake of norepinephrine (NE), dopamine (DA) and serotonin (5-HT) were tested in preparations of synaptosomes from different rat brain regions using the previously-reported techniques referenced below. Whole brains were obtained from normal rats. […] The filters were rinsed 3 times with 4 ml of Krebs-Ringer bicarbonate buffer (0-4° C.), and the radioactivity retained on the filters measured by liquid scintillation spectrometry. […]
The answer is to be given in nM; state only the numeric part.

Example entries and their recorded answers appear below.
Q. Given the compound CN1CC2CC2(c2ccc([N+](=O)[O-])c(Cl)c2)C1 (stereo not drawn) , what is its reported IC50?
A. 790

Q. Given the compound CCCN1CC2C[C@]2(c2ccc(Cl)c(Cl)c2)C1 (stereo partly drawn) , what is its reported IC50?
A. 390

Q. Given the compound Fc1ccc(C23CNCC2C3)cc1Cl (stereo not drawn) , what is its reported IC50?
A. 310

More entries:
Q. Given the compound CCCCN1CC2C[C@@]2(c2ccc(Cl)c(Cl)c2)C1 (stereo partly drawn) , what is its reported IC50?
A. 3000

Q. Given the compound COc1ccc2cc(C34CC3CN(C)C4)ccc2c1 (stereo not drawn) , what is its reported IC50?
A. 14

Q. Given the compound CN1CC2CC2(c2ccc(F)cc2F)C1 (stereo not drawn) , what is its reported IC50?
A. 1100

* * *

Target: dopamine (DA) uptake, rat striatum synaptosomes (Rattus norvegicus (Rat), UniProt P23977)
Test: Dopamine (DA) uptake inhibition in rat striatum synaptosomes
Type: biochemical
We begin with a simple list: items and their reported pIC50.
Units for pIC50: none; it is -log10 of a concentration expressed in mol/L.

Q. Given the compound Cc1ccc([C@]23CC2CN(C)C3)cc1F (stereo partly drawn) , what is its reported pIC50?
A. 6.04

Q. Given the compound CN1CC2CC2(c2ccc(F)c(Cl)c2)C1 (stereo not drawn) , what is its reported pIC50?
A. 6.11

Pending compound:
Q. Given the compound CC(C)N1CC2CC2(c2ccc(Cl)c(Cl)c2)C1 (stereo not drawn) , what is its reported pIC50?
A. 6.59
